The measurements presented in this section are drawn from patent US6750322B2.

- measured-target: rat BG2-2 (Rattus norvegicus, UniProt Q9QYN8)
- Sequence (Q9QYN8 whole entry): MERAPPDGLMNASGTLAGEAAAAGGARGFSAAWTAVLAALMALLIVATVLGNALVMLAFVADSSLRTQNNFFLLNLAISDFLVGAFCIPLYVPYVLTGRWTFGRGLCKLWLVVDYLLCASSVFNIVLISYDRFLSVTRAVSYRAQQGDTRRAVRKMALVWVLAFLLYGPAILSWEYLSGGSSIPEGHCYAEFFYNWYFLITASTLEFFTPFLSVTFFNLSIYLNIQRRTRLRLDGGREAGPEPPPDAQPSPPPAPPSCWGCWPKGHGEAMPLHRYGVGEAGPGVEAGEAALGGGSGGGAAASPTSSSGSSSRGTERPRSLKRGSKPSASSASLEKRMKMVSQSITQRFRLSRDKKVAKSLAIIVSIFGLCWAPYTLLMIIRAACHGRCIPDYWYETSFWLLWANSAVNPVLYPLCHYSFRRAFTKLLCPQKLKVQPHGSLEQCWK
pKd: −log10 of the molar value.
quantity-kind: pKd

cpd_smiles=CNCCc1c[nH]cn1.Cl.Cl measured_target="rat BG2-2 (Rattus norvegicus, UniProt Q9QYN8)" recorded_result=9.24

---

- measured-target: human BG2 (Homo sapiens, UniProt Q9Y5N1)
- Sequence (Q9Y5N1 1-453 isoform Q9Y5N1-2): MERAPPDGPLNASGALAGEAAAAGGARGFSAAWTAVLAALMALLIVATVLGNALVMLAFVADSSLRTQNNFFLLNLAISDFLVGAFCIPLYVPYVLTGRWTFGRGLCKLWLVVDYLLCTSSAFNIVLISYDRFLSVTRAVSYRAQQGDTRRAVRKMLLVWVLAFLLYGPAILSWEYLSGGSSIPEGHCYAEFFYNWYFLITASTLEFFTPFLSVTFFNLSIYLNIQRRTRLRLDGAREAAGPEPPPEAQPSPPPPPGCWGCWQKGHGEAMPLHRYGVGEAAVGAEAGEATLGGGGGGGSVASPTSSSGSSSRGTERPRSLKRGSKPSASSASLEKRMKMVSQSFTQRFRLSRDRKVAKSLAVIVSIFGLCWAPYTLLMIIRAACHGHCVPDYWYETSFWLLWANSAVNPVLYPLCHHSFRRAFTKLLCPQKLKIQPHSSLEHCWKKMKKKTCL
- test-method-notes: N-α-methylhistamine binding experiment on membrane fraction of COS7 cells expressing human BG2
- condition-summary: Human BG2; COS7 membrane fraction; 30° C., 40 min; read-out: Binding Constant
- Description: Vectors expressing each BG2 receptor were prepared using pEF1x (Biochemical and Biophysical Research Communications, 1998, 250:68-71). Each BG2 expression vector was introduced into COS7 cells by lipofection method. Genes were introduced using Lipofectamine PLUS reagent (GIBCO-BRL) according to the attached manual. […] By using N-α-methylhistamine, a histamine analogue agonist, the binding experiment was conducted and the binding constants were determined (Table 2). […]
pKd: −log10 of the molar value.
quantity-kind: pKd

cpd_smiles=CNCCc1c[nH]cn1.Cl.Cl recorded_result=9.26
